Give measured LoD for each item. Keep answers brief.
- targetSystem: T1, full length human tau protein 2N4R (hT40) (human, UniProt P10636 1-758)
- T1 construct: recombinant protein; also called T441
- T1 sequence (P10636 other isoform, or with tags, fused parts or gaps limits assumed): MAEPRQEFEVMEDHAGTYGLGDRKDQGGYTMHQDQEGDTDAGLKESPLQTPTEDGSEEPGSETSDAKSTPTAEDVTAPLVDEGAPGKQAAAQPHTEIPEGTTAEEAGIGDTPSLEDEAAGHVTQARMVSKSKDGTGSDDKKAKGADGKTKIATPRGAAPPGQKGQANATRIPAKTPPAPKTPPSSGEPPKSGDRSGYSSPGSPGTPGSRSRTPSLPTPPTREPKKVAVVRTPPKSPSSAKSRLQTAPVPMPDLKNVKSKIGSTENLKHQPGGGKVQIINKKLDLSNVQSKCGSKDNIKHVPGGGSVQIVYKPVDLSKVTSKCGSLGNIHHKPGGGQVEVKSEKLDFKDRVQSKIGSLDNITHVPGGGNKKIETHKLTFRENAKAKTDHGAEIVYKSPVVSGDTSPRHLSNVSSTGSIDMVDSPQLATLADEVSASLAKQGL
- experimentSummary: sandwich ELISA, S1D12 mAb capture, colourimetric detection
Give bare numbers, in ng/mL.

For each of the items listed, what is its LoD?
1. S1G10 scAb (scFv, scAb (scFv-HuCk-His)) scFv: QVQLQESGPSLVKPSQTLSLTCTVSGFSLTSNSVGWVRQAPGKAPEWVAGIDTDGEEGYNPALNSRLSITRDTSKSQVSLSLSSVTSEDTAVYYCGRSYRADGLAYGYVQAIDYWGPGLLVTVSSEGKSSGASGESKVDDQAVLTQPSSMSGSLGQRVSITCSGSFIGISSVGWFQQLPGSGLRTIIVASDGRPSGVPDRFSMSKSGNTATLTISSLQAEDEADYFCGSSDRTQYTGVFGSGTRLTVLG
2. 412E10 scAb (scFv, scAb (scFv-HuCk-His)) scFv: QVQLQESGPSLVKPSQTLSLTCTVSGFSVISDSVAWVRQAPGKVPEWLGASGSSGNKYYNPALKSRLSITRDTSKSQVSLSLSSVTTEDTAVYYCARGIIAGVDVWGRGLLVTVSSEGKSSGASGESKVDDQAVLTQPSSVSGSLGQRVSITCSGSSSNVGYGNYVGWYQQVPGSAPKLLIYGTAIRASGVPDRFSGSRSGDTATLTITSLQAEDEADYYCASYQSNYAFFGSGTRLTVLG
3. CB7 scAb (scFv, scAb (scFv-HuCk-His)) scFv: QVQLQESGPSLVKPSQTLSLTCTVSGFSLTNYRVGWVRQAPGKALEWVSNIRSGGTTWYNPALKSRLSITADTSKSQVSLSLSSVTTEDTAVYYCARDSSGDLYAYDYWGPGLLVTVSSEGKSSGASGESKVDDQAVLTQPSSVSRSLGQSVSMTCSGSSSNVGYGNYMAWFQQVPGSAPKLLIYGATSRASGVPDRFSGSRSGNTATLTISSLQAEDEADYYCASYDSTSGGVFGSGTRLTVLG
4. CC7 scAb (scFv, scAb (scFv-HuCk-His)) scFv: QVQLQESGPSLVKPSQTLSLTCTVSGFSLTSNAVIWVRQAPGKAPEWVALIDVDGDAAYDPALKSRLSITRDTSKSQVSLSLRSVTTEDTAVYYCARDYGSWGYVSDIDYWGPGLLVTVSSEGKSSGASGESKVDDRVVRTQPSSVSGSLGQRVSITCSGSYITGSSVGWFQQVPGSGLKTVIYDNNDRPSGVPDRFSGSKSGDTATLTISSLQAEDEADYYCASYDTSNIGLFGSGTRLTVLG
5. CA4 scAb (scFv, scAb (scFv-HuCk-His)) scFv: QVQLQESGPSLVKPSQTLSLTCTVSGFSLTSYSVYWVRQAPGQALEWISIMYASGRVDYNPALKSRLSITRDTSKSQFSLSLSSVTTEDTAVYYCTRGIENWGPGLLVTVSSEGKSSGASGESKVDDDIQVTQSPSSLSASLTERVSITCRTSQSVNNYLSWYQQKPGQAPKLLIYYATRLYTDVPSRFSGSGSGTDYTLTITSLEADDTATYYCLQYDSTPLAFGGGTNVEIK

1: 2; 2: 20; 3: 15; 4: 6; 5: 6
